Each entry below lists one item and its recorded protein stability index value.
# test details: protein stability index of a GFP-peptide fusion (yeast GPS) (PSI 1-4); higher = more stable; sorted into four equal gates, so the index is relative within each strain
# cond: pdr5∆
Form rule: numeric answer, no unit written next to it.

Entry under test: DTLKLRENLHILNEVFT [RRP6] . Its protein stability index was 2.87

Entry under test: LYRSIESGEFDFDLFKE [YJL039C/NUP192] . Its protein stability index was 2.93

Entry under test: AAGVERLIFYPDEYEQL [PRE3] . Its protein stability index was 2.86

----------
Each entry below lists one item and its recorded protein stability index value.
# test details: protein stability index of a GFP-peptide fusion (yeast GPS) (PSI 1-4); higher = more stable; sorted into four equal gates, so the index is relative within each strain
# cond: ubr1∆
Form rule: numeric answer, no unit written next to it.

>>> result("RDGGLRLGEMERDCVIA [RET1]")
3.34
>>> result("KSLDAETEAEEDHMLKK [RPO21]")
3.16
>>> result("DEKNKNNNEDNENNNNS [MED2]")
3.28
>>> result("QIPVYDTFDGSDLRVLS [FAS1]")
2.69
>>> result("PNPNNMKTVQSPMGAQP [GAL11]")
2.94
>>> result("GLHPFEVAQLGSLACDT [RPB4]")
2.33
>>> result("KVWLDPNETSEIAQANS [RPL19A]")
3.04
>>> result("KEHEPCIIFMDEVDAIG [RPT4]")
1.98

Entry under test: FRTDMLQVADKFFRVKY [SMC3] . Its protein stability index was 2.12

Entry under test: TSTGIIRCHREDCDLVI [POP5] . Its protein stability index was 2.56

Entry under test: VARIYASFNDTFVHVTD [RPS14A] . Its protein stability index was 2.2

----------
# test details: protein stability index of a GFP-peptide fusion (yeast GPS) (PSI 1-4); higher = more stable; sorted into four equal gates, so the index is relative within each strain
# cond: pdr5∆
parameter: protein stability index
Form rule: numeric answer, no unit written next to it.

Past entries and their recorded results:
>>> result("TVELQVGLKNYDPQRDK [RPL1A]")
3.12
>>> result("SQLQPQPQPQPQQQQQH [YDL088C/ASM4]")
2.95
>>> result("KEPVALIETVRQMKDVN [RPN2]")
3.41
>>> result("SSLVRRNSVKLLSKLLL [YCS4]")
1.61
>>> result("DIFGDSELFDEWFEQNN [ISW2]")
2.49

Entry under test: NLATKGMVKLNEYPVAD [REC8] . Its protein stability index was 1.52

Entry under test: EMVKDRGYFITQEEVEL [RPB5] . Its protein stability index was 2.08

Entry under test: QEYLNPVIDTQIANEFN [YDL116W/NUP84] . Its protein stability index was 2.96

Entry under test: LALERMVPKRSTIITKA [YCS4] . Its protein stability index was 1.47

Entry under test: QFLRLIFVSILSDRANK [ARP9] . Its protein stability index was 1.65

Entry under test: MRAKWRKKRTRRLKRKR [RPL41A] . Its protein stability index was 3.06

Entry under test: STMGTPTVHNSTAAAPI [PGD1] . Its protein stability index was 3.07

Entry under test: QGGFYKQQDAEELFTQL [UBP6] . Its protein stability index was 3.44

Entry under test: PSSEVYSPIEKESPWKI [RRP6] . Its protein stability index was 3.03

----------
# test details: protein stability index of a GFP-peptide fusion (yeast GPS) (PSI 1-4); higher = more stable; sorted into four equal gates, so the index is relative within each strain
# cond: ubr1∆
Each entry below lists one item and its recorded protein stability index value.

>>> result("PSYSPTSPSYSPTSPSY [RPO21]")
2.81
>>> result("VKMLRDNPGYKASKEIK [SIR3]")
3.15
>>> result("KTESQDVETRVQNLEQT [DPB4]")
3.24
>>> result("LMRSCFYLMVSSLSFGP [YJL039C/NUP192]")
1.19
>>> result("SKSMKFSRRFDCRDVYC [CSN9]")
2.66

Entry under test: TLKKNNVAVDIINFGEI [RPN10] . Its protein stability index was 2.74

Entry under test: EGNQGSLQEDVSFDFNG [MED8] . Its protein stability index was 3.2

Entry under test: QEAFKIYQHLASHNEKD [SRP72] . Its protein stability index was 2.89

Entry under test: DEATVPNTRDAESEAIT [SWI3] . Its protein stability index was 3.23

Entry under test: DSTDNENSGKEMDEKSY [LIN1] . Its protein stability index was 3.49

----------
# test details: protein stability index of a GFP-peptide fusion (yeast GPS) (PSI 1-4); higher = more stable; sorted into four equal gates, so the index is relative within each strain
# cond: ubr1∆
Each entry below lists one item and its recorded protein stability index value.
Form rule: numeric answer, no unit written next to it.

>>> result("QLNSRAVAVVVDPIQSV [RPN11]")
1.48

Entry under test: SKWFNLEKIHSIEVQSL [SWI3] . Its protein stability index was 2.72

Entry under test: KILEQFEYVLYPSKTLK [FAS2] . Its protein stability index was 3.15

Entry under test: DLSYIEFLFESLKNDLP [ECM29] . Its protein stability index was 3.13

Entry under test: EDEMMHEEDQKTNIIEK [RPN12] . Its protein stability index was 2.85

Entry under test: IEMYVQEASKQYTKDEQ [RPN2] . Its protein stability index was 3.31

Entry under test: PLLSLDVTPISMFGSDQ [RPN4] . Its protein stability index was 3.18

Entry under test: PVNTGVLHVSAKGKSGV [RRP40] . Its protein stability index was 2.64

----------
# test details: protein stability index of a GFP-peptide fusion (yeast GPS) (PSI 1-4); higher = more stable; sorted into four equal gates, so the index is relative within each strain
# cond: doa10∆
Binary call on protein stability index: criterion met from 2 upward, criterion not met beneath that.

Take a look at these entries with their results.
>>> category("SGITGECLQAYIFFGPI [RET1]")
"criterion met"
>>> category("FLESSKEIDPSQTTQLA [FAS2]")
"criterion met"

Asked: Can IIMFVGLQGSGKTTSCT [SRP54] be said to have protein stability index at or above 2?
Given back: criterion met

Asked: Can DTLKLRENLHILNEVFT [RRP6] be said to have protein stability index at or above 2?
Given back: criterion met

Asked: Can TAPSSQRRVLLSAPLSK [RPL26A] be said to have protein stability index at or above 2?
Given back: criterion met

Asked: Can GKKKSATAVAHVKAGKG [RPS16A] be said to have protein stability index at or above 2?
Given back: criterion met

Asked: Can TDLPIETAAMASLALAH [RPN1] be said to have protein stability index at or above 2?
Given back: criterion not met

Asked: Can SSKTSQPKPLFSFGKSD [YOR098C/NUP1] be said to have protein stability index at or above 2?
Given back: criterion met

Asked: Can ANTGGGLFGANSNSNSG [YGL172W/NUP49] be said to have protein stability index at or above 2?
Given back: criterion met

----------
# test details: protein stability index of a GFP-peptide fusion (yeast GPS) (PSI 1-4); higher = more stable; sorted into four equal gates, so the index is relative within each strain
# cond: san1∆
Each entry below lists one item and its recorded protein stability index value.

Past entries and their recorded results:
>>> result("EIENATKDIFPLQNIHV [RPS1A]")
1.11
>>> result("SKQVQVSQQPLSRGYTC [ECM29]")
2.44
>>> result("QANTEPENITKREASRG [MCD1]")
3.03
>>> result("IIPQDILDCVVTNSMRQ [YJR042W/NUP85]")
3.35
>>> result("DQFQWILRKPGKDCKLQ [RRI2]")
3.26
>>> result("FKQKLNELLKCKDDVQL [MTW1]")
2.87

Switching to the query record.
Entry under test: TLLPGLQDEVMNIKPVQ [RPS2] . Its protein stability index was 1.18

----------
# test details: protein stability index of a GFP-peptide fusion (yeast GPS) (PSI 1-4); higher = more stable; sorted into four equal gates, so the index is relative within each strain
# cond: doa10∆
Each entry below lists one item and its recorded protein stability index value.
Form rule: numeric answer, no unit written next to it.

Past entries and their recorded results:
>>> result("RWDKEEYQSLMSLKDKL [SMC1]")
3.29
>>> result("FVAATTNAGYTIELAGG [FAS1]")
2.82
>>> result("NRKRIVTLRKSLYTNTS [RPL3]")
2.66

Entry under test: SSSDFRLHYYPKDPSNV [BRR2] . Its protein stability index was 3.21

Entry under test: TLSTHSTTTSVNGSTTA [SIN4] . Its protein stability index was 2.79

Entry under test: NASKVISTPIINAVLVN [RPO31] . Its protein stability index was 1.63

Entry under test: LVDLVSHFSPDIKAAVD [ITC1] . Its protein stability index was 1.95

Entry under test: QLCQITCQILESGEDEA [RRP46] . Its protein stability index was 2.25
